Taken from paper PMC3210601.

- tested.on: UniProtKB Q95PM0
- Sequence (Q95PM0 entry or part of it): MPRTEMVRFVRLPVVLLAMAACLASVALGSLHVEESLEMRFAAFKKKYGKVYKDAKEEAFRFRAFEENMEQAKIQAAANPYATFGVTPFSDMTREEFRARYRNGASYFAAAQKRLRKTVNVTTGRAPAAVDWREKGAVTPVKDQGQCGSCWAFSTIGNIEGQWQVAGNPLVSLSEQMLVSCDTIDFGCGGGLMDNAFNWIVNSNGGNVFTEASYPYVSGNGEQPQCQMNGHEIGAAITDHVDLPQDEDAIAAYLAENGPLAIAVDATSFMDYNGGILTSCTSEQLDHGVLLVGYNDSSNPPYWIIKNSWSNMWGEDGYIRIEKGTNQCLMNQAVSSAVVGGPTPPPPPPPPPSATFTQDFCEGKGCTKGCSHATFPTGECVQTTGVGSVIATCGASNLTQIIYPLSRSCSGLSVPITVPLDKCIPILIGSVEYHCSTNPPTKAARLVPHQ
reported.metric: pKi
Conceptually, pKi converts a concentration in mol/L into minus its log10.

// below: answered compounds
[[record]]
compound = "CC1=CC2(C)/C=C(\\C)CC/C=C(/C)C3C(C)=CC4C(O)CCC(C)C4C3(C)C(=O)C3=C(O)C2(CC1C)OC3=O (stereo not drawn)"
reported_metric = "pKi"
data_value = 6.21

[[record]]
compound = "COc1cc(O)cc(C)c1C(=O)OC1C(C)OC(OC2CC(C)=CC3C2CC(C)C2/C(C)=C\\CC/C(C)=C/C4(C)C=C(C(=O)O)C(C)CC45OC(=O)C(=C5O)C(=O)C32C)C(O)C1O (stereo not drawn)"
reported_metric = "pKi"
data_value = 5.40


Read the next record carefully.
Enquiry: Can you share its pKi? I mean this compound: COc1cc(O)cc(C)c1C(=O)OC1C(C)OC(OC2CC=C(C)C3C2CC(C)C2/C(C)=C\CC/C(C)=C/C4C=C(C(=O)O)C(C)CC45OC(=O)C(=C5O)C(=O)C32C)C(O)C1O (stereo not drawn)
Return: 5.68

* * *

- tested.on: cathepsin L (Homo sapiens)
- Sequence (P07711 114-333, species assumed): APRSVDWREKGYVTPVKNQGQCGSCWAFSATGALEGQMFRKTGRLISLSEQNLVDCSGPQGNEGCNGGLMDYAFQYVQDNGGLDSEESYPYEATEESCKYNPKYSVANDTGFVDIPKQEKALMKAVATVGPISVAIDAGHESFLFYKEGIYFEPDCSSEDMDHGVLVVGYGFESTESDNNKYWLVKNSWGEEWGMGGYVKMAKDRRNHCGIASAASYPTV
# Lookup of reported pKi keyed by entry
Conceptually, pKi converts a concentration in mol/L into minus its log10.

[[record]]
molecule = "COc1cc(O)cc(C)c1C(=O)OC1C(C)OC(OC2CC=C(C)C3C2CC(C)C2/C(C)=C\\CC/C(C)=C/C4C=C(C(=O)O)C(C)CC45OC(=O)C(=C5O)C(=O)C32C)C(O)C1O (stereo not drawn) [Compound 3, Tetromycin 3]"
reported_metric = "pKi"
data_value = 4.82

[[record]]
molecule = "COc1cc(O)cc(C)c1C(=O)OC1C(C)OC(OC2CC(C)=CC3C2CC(C)C2/C(C)=C\\CC/C(C)=C/C4(C)C=C(C(=O)O)C(C)CC45OC(=O)C(=C5O)C(=O)C32C)C(O)C1O (stereo not drawn) [Compound 4, Tetromycin 4]"
reported_metric = "pKi"
data_value = 4.65


Enquiry: Can you share its pKi? I mean this molecule: CC1=CC2(C)/C=C(\C)CC/C=C(/C)C3C(C)=CC4C(O)CCC(C)C4C3(C)C(=O)C3=C(O)C2(CC1C)OC3=O (stereo not drawn) [Compound 5, Tetromycin B]
Return: 4.49
